- Tested on: UACC-257
- measurementDescription: NCI tumour cell line growth inhibition, 48 h
Calls of active or inactive are those of the source. No stated cut-off is given here; in the data, active = GI50 up to about 1.1 µM and inactive = higher.
Possible outcomes: active, inactive

compound: Cc1cccc(NC(=O)/C=C/c2ccc([N+](=O)[O-])cc2)c1
targetOfAssay: UACC-257
classAssignment: inactive
--
compound: C=CCN1CN(C2CCCCC2)CSC1=S
targetOfAssay: UACC-257
classAssignment: inactive
--
compound: COC(=O)C(N)CCCC(N)C(=O)NC(C)C(=O)NC(CCC(=O)NCCCNc1ccc([N+](=O)[O-])c2[nH]c3ccccc3c(=O)c12)C(N)=O (stereo not given)
targetOfAssay: UACC-257
classAssignment: inactive
--
compound: Oc1ncnc2c1nnn2CCCn1nnc2c(O)ncnc21
targetOfAssay: UACC-257
classAssignment: inactive
--
compound: CC[C@@]1(O)C(=O)OCc2c1cc1n(c2=O)Cc2c-1nc1ccccc1c2/C=N\NC(=O)C(N)Cc1ccc(O)cc1 (stereo not given in full)
targetOfAssay: UACC-257
classAssignment: inactive
--
compound: C/C=C1/CCC2c3[nH]c4ccccc4c3CCN2C1 (stereo not given)
targetOfAssay: UACC-257
classAssignment: inactive
--
compound: Cc1ccc(S(=O)(=O)N2CCN(C=S)CC2)cc1
targetOfAssay: UACC-257
classAssignment: inactive
--
compound: CC12N=NNC1C(=O)NC2=O (stereo not given)
targetOfAssay: UACC-257
classAssignment: inactive
--
compound: Cc1cc(=O)n(-c2cc3cccccc-3n2)[nH]1
targetOfAssay: UACC-257
classAssignment: inactive
--
compound: c1ccc2c(-c3cnc(-c4c[nH]c5ccccc45)cn3)c[nH]c2c1
targetOfAssay: UACC-257
classAssignment: inactive
--
compound: COc1cc(/C=C/C(=O)c2sc(-n3nc(-c4ccccc4)cc3-c3ccccc3)nc2C)ccc1O
targetOfAssay: UACC-257
classAssignment: inactive
--
compound: C[C@@]1(CO)[C@H](O)CC[C@@]2(C)[C@H]1CC[C@H]1C[C@@H]3C[C@@]12CC[C@@]3(O)COC(=O)CN
targetOfAssay: UACC-257
classAssignment: inactive
--
compound: COc1ccc2c(c1)C(=O)CCc1cc(OC)c(OC)c(OC)c1-2
targetOfAssay: UACC-257
classAssignment: active
--
compound: C=CC(C)(C)N[C@@H](C(=O)N1CCC[C@H]1c1nc(-c2nc(C(=O)OCC=C(C)C)c(C)o2)c(C)o1)C(C)C
targetOfAssay: UACC-257
classAssignment: inactive
--
compound: Oc1ccc2c(c1)-c1c(c3ccccc3n1CCN1CCOCC1)CC2
targetOfAssay: UACC-257
classAssignment: inactive
--
compound: N=C(c1ccccc1)N(O)C1CCCCC1
targetOfAssay: UACC-257
classAssignment: inactive
--
compound: Cc1cc(C2(c3cc(C)c(O)c4ncccc34)OC(=O)c3ccccc32)c2cccnc2c1O
targetOfAssay: UACC-257
classAssignment: inactive
--
compound: COc1cc2cc(C(=O)N3CC(CCl)c4ccc(NCCN)cc43)[nH]c2c(OC)c1OC (stereo not given)
targetOfAssay: UACC-257
classAssignment: active
--
compound: Nc1nc2[nH]cnc2c(=O)[nH]1
targetOfAssay: UACC-257
classAssignment: inactive
--
compound: Sc1nnc(COc2ccc(Cl)cc2)n1-c1ccccc1
targetOfAssay: UACC-257
classAssignment: inactive

====

Reported values of GI50 for individual entries
- Test system: RPMI-8226
- measurementDescription: NCI tumour cell line growth inhibition, 48 h
Activity calls are given as the source filed them. Cut-off read from the data, not from the text of the source: active = GI50 up to about 1.1 µM and inactive = higher.

compound: COc1ccc(-c2nc3ncccn3c2-c2ccc(SC)cc2)cc1
targetOfAssay: RPMI-8226
GI50: 2.48 µM (inactive)
//
compound: [N-]=[N+]=Nc1ccccc1-[n+]1noc([O-])c1Br
targetOfAssay: RPMI-8226
GI50: > 100 µM (inactive)
//
compound: CC1=NNC(=O)C1C1CC(c2c[nH]c3ccccc23)=NNC1=O (stereo unspecified)
targetOfAssay: RPMI-8226
GI50: > 100 µM (inactive)
//
compound: CN1C(=O)c2ccccc2OC12C=Cc1ccc(O)cc1O2 (stereo unspecified)
targetOfAssay: RPMI-8226
GI50: 30.3 µM (inactive)
//
compound: C=CCNC(=S)NC=C(C(N)=O)C(N)=O
targetOfAssay: RPMI-8226
GI50: > 100 µM (inactive)
//
compound: CCn1c2ccccc2c2cc(NC(=O)c3c(C)[nH]c(=O)[nH]c3=S)ccc21
targetOfAssay: RPMI-8226
GI50: 40.6 µM (inactive)

====

- System: RXF 393
- measurementDescription: NCI tumour cell line growth inhibition, 48 h
Active and inactive are the calls of the source. Cut-off read from the data, not from the text of the source: active = GI50 up to about 1.1 µM and inactive = higher.
Outcome codes: TRUE = active, FALSE = inactive

compound: CCc1cc(=O)n(/C(C)=C/c2ccccc2)n1C
targetOfAssay: RXF 393
classAssignment: FALSE
--
compound: CN1C(=O)C2C=CC1C1CCC2N(C)C1=O (stereo not given)
targetOfAssay: RXF 393
classAssignment: FALSE
--
compound: Cn1nc(/C=C\C(=O)N2CC(CCl)c3c2cc(N)c2ccccc32)cc1/C=C/C(=O)N1CC(CCl)c2c1cc(N)c1ccccc21 (stereo not given)
targetOfAssay: RXF 393
classAssignment: TRUE
--
compound: COC(=O)[C@@H]1CC(C(CN)c2cn(C(=O)OC(C)(C)C)c3ccccc23)C(=O)N1C(=O)OC(C)(C)C (stereo not given in full)
targetOfAssay: RXF 393
classAssignment: FALSE
--
compound: CC(C)C(=O)NCC[C@@H](CNC(=O)OC(C)(C)C)NC(=O)OC(C)(C)C
targetOfAssay: RXF 393
classAssignment: FALSE

====

- Test system: RPMI-8226
- measurementDescription: NCI tumour cell line growth inhibition, 48 h
Active and inactive are the calls of the source. Rule as the data show it: active = GI50 up to about 1.1 µM and inactive = higher.
Classes used: 1.0 (active), 0.0 (inactive)

compound: O=C(CC1(O)C(=O)Nc2ccccc21)c1ccc(O)cc1 (stereo unspecified)
targetOfAssay: RPMI-8226
classAssignment: 0.0
--
compound: CC1=C(C)Cc2c(O)ccc(O)c2C1
targetOfAssay: RPMI-8226
classAssignment: 0.0
--
compound: CCN(CC)C(=O)Cn1c(-c2ccccc2)cc2ccccc21
targetOfAssay: RPMI-8226
classAssignment: 0.0
--
compound: NNc1nc2ccccc2s1
targetOfAssay: RPMI-8226
classAssignment: 0.0
--
compound: Cc1cc2c(cc1C)N1C(Cl)=C3CCCCC3=C(C#N)C1N2 (stereo unspecified)
targetOfAssay: RPMI-8226
classAssignment: 0.0
--
compound: COCCN(C(=O)c1ccccc1)C1CCC2(SCCS2)c2[nH]c3ccccc3c21 (stereo unspecified)
targetOfAssay: RPMI-8226
classAssignment: 0.0
--
compound: O=C(O/N=C1/CCC/C1=C\c1ccccc1)c1ccc(Cl)cc1
targetOfAssay: RPMI-8226
classAssignment: 0.0
--
compound: CC(=O)OC(C)c1cc2c(s1)C(=O)c1scc(C(C)OC(C)=O)c1C2=O (stereo unspecified)
targetOfAssay: RPMI-8226
classAssignment: 1.0
--
compound: C=C1CCCC(C)(C)C1CCC1(C)CCC(C(C)C(=O)OC)OO1 (stereo unspecified)
targetOfAssay: RPMI-8226
classAssignment: 0.0
--
compound: O=C(COc1ccc(OCC(=O)N2C(=O)CC(=O)N(c3ccccc3)C2=S)cc1)N1C(=O)CC(=O)N(c2ccccc2)C1=S
targetOfAssay: RPMI-8226
classAssignment: 0.0
--
compound: Cc1cc(C2(c3cc(C)c(O)c4ncccc34)OC(=O)c3ccccc32)c2cccnc2c1O
targetOfAssay: RPMI-8226
classAssignment: 1.0

====

- Tested on: LOX IMVI
- measurementDescription: NCI tumour cell line growth inhibition, 48 h
The source made the active and inactive calls. No stated cut-off is given here; in the data, active = GI50 up to about 1.1 µM and inactive = higher.

compound: Oc1ncnc2c1nnn2CCCn1nnc2c(O)ncnc21
GI50: > 100 µM (inactive)

compound: CCN(CC)C(=S)SC [METHYLDIETHYL CARBAMODITHIOATE]
GI50: > 100 µM (inactive)

compound: C=C(Br)C/N=C/N(C)C
GI50: > 100 µM (inactive)

compound: CC(=O)OC(C)c1cc2c(s1)C(=O)c1scc(C(C)OC(C)=O)c1C2=O (stereo not drawn)
GI50: 0.118 µM (active)

compound: COC(=O)c1c(C(=O)OC)c(-c2ccccc2)n(-c2ccccc2)c(=O)c1-c1ccccc1
GI50: 84.5 µM (inactive)

compound: O=[N+]([O-])c1nccn1COCCO
GI50: > 100 µM (inactive)

compound: Cc1cc(C)c(C(=O)OC(c2ccccc2)C(c2ccccc2)N2CCOCC2)c(C)c1 (stereo not drawn)
GI50: > 100 µM (inactive)

compound: CC(C)OC(=O)Nc1c([N+](=O)[O-])cc(C(F)(F)F)cc1[N+](=O)[O-]
GI50: > 100 µM (inactive)

compound: CCOC(=O)c1c(C)n(-c2ccc(C)cc2)c2c1cc(O)c1[nH]c3c(c12)CCCC3
GI50: 14.4 µM (inactive)

compound: Cc1cc2c(=O)cc(-c3ccc(O)cc3)oc2c(C(=O)O)c1C
GI50: > 100 µM (inactive)

compound: C[C@@]12C[C@@H](c3ccccc3O1)N1CCCCSC1=N2
GI50: > 100 µM (inactive)

compound: CCn1c2ccccc2c2cc(NC(=O)c3c(C)[nH]c(=O)[nH]c3=S)ccc21
GI50: > 100 µM (inactive)

compound: Cc1cccc(NC(=O)/C=C/c2ccc([N+](=O)[O-])cc2)c1
GI50: > 36.3 µM (inactive)
